Test system: Mycobacterium tuberculosis
Experiment: Antimycobacterial activity against Mycobacterium tuberculosis H37Rv by microplate alamar blue assay
Format: functional
Entries and their log10 of MIC
Heads up, the numbers here are log10 of MIC in µg/mL units.

See these solved cases before continuing.
INSERT INTO measurements (compound, target_system, readout_label, recorded_measurement) VALUES
  ('CC(C)CCOc1ccc(NC(=S)Nc2ccc(OCCC(C)C)cc2)cc1 [TIOCARLIDE]', 'Mycobacterium tuberculosis', 'log10 of MIC', 0.40),
  ('CC(C)CCOc1ccc(NC(=S)NC2O[C@H](CO)[C@@H](O)[C@@H]2O)cc1 (stereo not given in full)', 'Mycobacterium tuberculosis', 'log10 of MIC', 0.19),
  ('CC(C)CCOc1ccc(NC(=S)NC2O[C@H](CO)[C@@H](O)[C@H]2O)cc1 (stereo not given in full)', 'Mycobacterium tuberculosis', 'log10 of MIC', 0.49),
  ('CC(C)CCOc1ccc(NC(=S)NC2O[C@H](CO)[C@H](O)[C@H]2O)cc1 (stereo not given in full)', 'Mycobacterium tuberculosis', 'log10 of MIC', 0.80);

We next turn to a different compound, shown below.
Using the record for CC(C)CCOc1ccc(NC(=S)NC2O[C@H](CO)[C@H](O)[C@@H]2O)cc1 (stereo not given in full) , report its log10 of MIC.
1.70
